# experimental.system: T1, human CLDN6 fused to GFP, expressed on engineered HEK293T cells (HEK293T-CLDN6-mGFP) (human, UniProt P56747 1-220)
# T1 construct: It calls residues 1-21 a signal peptide; also called Claudin-6; HEK293T-CLDN6-mGFP Artificial CLDN6+; not shown: mGFP tag
# T1 sequence: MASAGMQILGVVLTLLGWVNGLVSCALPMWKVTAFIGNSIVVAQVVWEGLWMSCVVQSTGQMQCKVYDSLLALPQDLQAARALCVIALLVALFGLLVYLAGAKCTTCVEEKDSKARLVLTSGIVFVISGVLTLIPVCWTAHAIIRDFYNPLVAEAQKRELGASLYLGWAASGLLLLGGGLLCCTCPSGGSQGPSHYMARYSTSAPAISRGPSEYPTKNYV
# protocol.details: FACS, 1.5 µg Ab, 293T clone with human CLDN6
readout.label: FACS fluorescence
# output: bare number, no unit

Record request: FACS fluorescence value, item AB1-7 (antibody, V domains shown, Humanized; also called Humanized AB 1-7) VH: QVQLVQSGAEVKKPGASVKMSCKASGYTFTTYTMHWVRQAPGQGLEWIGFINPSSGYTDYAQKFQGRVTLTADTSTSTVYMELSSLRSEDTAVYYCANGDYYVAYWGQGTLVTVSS VL: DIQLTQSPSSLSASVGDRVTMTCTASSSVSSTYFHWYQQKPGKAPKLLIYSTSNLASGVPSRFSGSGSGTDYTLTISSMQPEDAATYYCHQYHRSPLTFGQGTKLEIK 207000

What do we get for AB3-7 (antibody, V domains shown, also called Humanized AB 3-7) VH: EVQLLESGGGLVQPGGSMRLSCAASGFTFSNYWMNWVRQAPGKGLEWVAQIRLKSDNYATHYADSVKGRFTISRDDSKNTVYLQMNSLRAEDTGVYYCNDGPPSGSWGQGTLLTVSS VL: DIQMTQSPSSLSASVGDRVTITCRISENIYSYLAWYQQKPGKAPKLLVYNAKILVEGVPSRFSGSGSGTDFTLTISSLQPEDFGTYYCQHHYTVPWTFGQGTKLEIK ? 169000
